Each recorded value in this set is attributed to patent US12492187B2.

Target Desc: Human coagulation factor (F)XI (Homo sapiens)
Construct: purchased Haematologic Technologies Inc. (FXI); Enzyme Research Laboratories (FXIIa) HCXI-150 (FXI); HFXIIa (FXIIa)
Assay Summary: Inhibition of FXIIa mediated activation of FXI (activation of human Factor XI to XIa by human Factor α-XIIa)
Type: biochemical
Measurement Setup: human FXI pre-incubated with compound 30 min at 22° C., activation by human FXIIa 60 min, z-GPR-AFC substrate, fluorescence 405/510 nm, 4 parameter logistic fit; read-out: Inhibition of FXIIa meditated activation of FXI
pEC50: −log10 of the molar value.
# pEC50 >= 7 gives met, anything below gives not met

Illustrative cases are given below, each with its answer.
> print(dat)
                                   compound  group.label
1  Cc1nc(C(=O)N2CCC(C#N)(c3ccccc3)CC2)cc(C(=O)N2CCC(Cc3ccccc3)CC2)c1C [Example 30]          met
2  Cc1cnc(C(=O)N2CCC(C#N)(c3ccccc3)CC2)cc1C(=O)N1CC[C@@H]2c3ccccc3O[C@@H]2C1 (racemic) [Example 2]          met
3  Cc1cnc(C(=O)N2CCC(C#N)(c3ccccc3)CC2)cc1C(=O)N1CCC(c2ccccc2)CC1 [Example 5]          met
4  Cc1cnc(C(=O)N2CCC(C#N)(c3ccccc3)CC2)cc1C(=O)N1CC(c2cccc(F)c2)C1 [Example 4]      not met

Quick check: does Cc1nc(C(=O)N2CCC(C#N)(c3ccccc3)CC2)cc(C(=O)N2CCC(c3ccccc3)CC2)c1C [Example 32] have pEC50 greater than or equal to 7?
met

----------
Target Desc: Human coagulation factor (F)XI (Homo sapiens, UniProt P03951)
Construct: Enzyme Research Laboratories (FXIIa) HCXI-150 (FXI); HFXIIa (FXIIa)
Sequence (P03951 19-625): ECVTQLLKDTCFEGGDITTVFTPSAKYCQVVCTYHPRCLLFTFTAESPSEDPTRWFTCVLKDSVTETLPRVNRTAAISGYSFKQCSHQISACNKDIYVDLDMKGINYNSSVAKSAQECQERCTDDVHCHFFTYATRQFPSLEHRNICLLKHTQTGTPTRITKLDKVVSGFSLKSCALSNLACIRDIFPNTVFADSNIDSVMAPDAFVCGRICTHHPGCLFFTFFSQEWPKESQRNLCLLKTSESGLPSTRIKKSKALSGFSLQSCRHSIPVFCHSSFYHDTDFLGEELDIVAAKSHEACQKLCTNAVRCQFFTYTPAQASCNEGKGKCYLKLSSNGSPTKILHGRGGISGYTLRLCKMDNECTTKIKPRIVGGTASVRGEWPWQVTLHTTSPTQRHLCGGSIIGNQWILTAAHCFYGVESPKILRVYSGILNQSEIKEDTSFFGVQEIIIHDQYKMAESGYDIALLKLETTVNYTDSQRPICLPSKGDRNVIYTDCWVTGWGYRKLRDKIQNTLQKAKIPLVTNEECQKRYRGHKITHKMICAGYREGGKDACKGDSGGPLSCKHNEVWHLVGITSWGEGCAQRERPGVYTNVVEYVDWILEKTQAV
Assay Summary: Inhibition of FXIIa mediated activation of FXI (activation of human Factor XI to XIa by human Factor α-XIIa)
Measurement Setup: human FXI pre-incubated with compound 30 min at 22° C., activation by human FXIIa 60 min, z-GPR-AFC substrate, fluorescence 405/510 nm, 4 parameter logistic fit; read-out: Inhibition of FXIIa meditated activation of FXI
Counter-ions that a name gives are not always drawn.
Here the recorded pEC50 is given for each entry.
To interpret pEC50, take it as minus log10 of a concentration measured in moles per litre.

Below, each entry is followed by its recorded pEC50 result.
> print(dat)
                                   molecule  recorded.number
1  Cc1cnc(C(=O)N2CCC(C#N)(c3ccccc3)CC2)cc1C(=O)N1CCC2c3ccc(F)cc3OC2C1 (stereo not shown) [Example 20, trifluoroacetate]             7.43
2  Cc1cnc(C(=O)N2CCC(C#N)(c3ccccc3)CC2)cc1C(=O)N1CCC2c3ccc(C#N)cc3OC2C1 (stereo not shown) [Example 22, trifluoroacetate]             7.26
3  Cc1cnc(C(=O)N2CCC(C#N)(c3ccccc3)CC2)cc1C(=O)N1CCC(C)(N2CCC(F)(F)C2)CC1             7.21

// query pEC50 value for entry Cc1cnc(C(=O)N2CCC(C#N)(c3ccccc3)CC2)cc1C(=O)N1CCC2c3cc(F)c(F)cc3OC2C1 (stereo not shown) [Example 24, trifluoroacetate]
7.21

Given the molecule CC(C)(C)C1CCN(C(=O)c2cc(C(=O)N3CCC(C#N)(c4ccccc4)CC3)ncc2C2CC2)CC1 [Example 15, 2,2,2-trifluoroacetate salt] , what is its reported pEC50?
7.37

For the molecule shown here, "Cc1cnc(C(=O)N2CCC(C#N)(c3ccccc3)CC2)cc1C(=O)N1CCC(CCc2ccccc2)CC1" , give the reported pEC50.
6.82

Entry "Cc1nc(C(=O)N2CCC(C#N)(c3ccccc3)CC2)cc(C(=O)N2CCC(C(C)(C)C)CC2)c1C" : reported pEC50 = ?
7.60

Which pEC50 value belongs to "Cc1nc(C(=O)N2CCC(C#N)(c3ccccc3)CC2)cc(C(=O)N2CCC(Cc3nccs3)CC2)c1C" ?
7.21

Which value of pEC50 has been reported for "Cc1nc(C(=O)N2CCC(C#N)(c3ccccc3)CC2)cc(C(=O)N2CCN(C3(c4ccccc4)CC3)CC2)c1C" in the records?
7.39

// pEC50 lookup, key: Cc1cnc(C(=O)N2CCC(C#N)(c3ccccc3)CC2)cc1C(=O)N1CCC2c3ccc(Cl)cc3OC2C1 (stereo not shown) [Example 23, trifluoroacetate]
7.12
